System: Mus musculus
Assay: Anti-inflammatory activity in Swiss mouse assessed as reduction in carrageenan-induced paw edema by measuring paw volume […] po pretreated for 1 hr followed by carrageenan injection and measured after 1 to 5 hrs by plethysmometric method (reference value: 67.73 +/- 4.2 uL)
Format: functional
measuredProperty: Activity (µL)
Numbers only, in µL.

COc1ccc(/C=N/NC(=O)c2ccc(CN3CCCC(O)C3)cc2)cc1 (stereo unspecified) | 25.71
O=C(N/N=C/c1ccc(Cl)cc1)c1ccc(CN2CCCC(O)C2)cc1 (stereo unspecified) | 17.14
O=C(N/N=C/c1ccc(F)cc1)c1ccc(CN2CCCC(O)C2)cc1 (stereo unspecified) | 20
CC(=O)OC1CCCN(Cc2ccc(C(=O)N/N=C/c3ccc(N)cc3)cc2)C1 (stereo unspecified) | 11.43
O=C(N/N=C/c1ccc(N2CCOCC2)cc1)c1ccc(CN2CCCC(O)C2)cc1 (stereo unspecified) | 21.43

Identify measured Activity corresponding to `COc1ccc2c(c1)c(CC(=O)O)c(C)n2C(=O)c1ccc(Cl)cc1`
14.29
